System: PfAP2-HC AP2 domain (GST-tagged)
PROCEDURE_DETAILS: gcPBM binding intensity (ln(normalized median fluorescence intensity)); higher = stronger DNA binding
The full ranking holds about 25,000 sequences; the median of “ln(normalized median fluorescence intensity)” is about 9.7, and the highest 2% start at about 11. What follows is part of a selection rich in the highest values, with near analogues and random picks from the rest.
Could you label it class 1 if measured gcPBM binding intensity (ln) is 10 or higher, and class 0 otherwise?

macromolecule_sequence="TATAAAAATAAGCACACACACAAATATATATTTATT [CACACA_site922]" class_name="class 1"

Moving on to another sequence below.
Given ATAAATAAAGGACACACACACACACTAATAAAAAAA [CACACA_site8840] , state whether its gcPBM binding intensity (ln) is at least 10.
class 1

* * *

Tested on: PfAP2-HC AP2 domain (GST-tagged)
PROCEDURE_DETAILS: gcPBM binding intensity (ln(normalized median fluorescence intensity)); higher = stronger DNA binding
The full ranking holds about 25,000 sequences; the median of “ln(normalized median fluorescence intensity)” is about 9.7, and the highest 2% start at about 11. The sample as a whole holds a higher share of the highest values than the screen did.
Field: gcPBM binding intensity (ln). Provide a value for each of the sequences that follow.

Reference set, count: 3
macromolecule_sequence="AAATGGGTTTATTTAACACACAAAAGAAAAAATATA [CACACA_site1938]" measured_on="PfAP2-HC AP2 domain (GST-tagged)" value=9.77
macromolecule_sequence="TACACCAAAAAAAAACGTACAAAATCCCACCCAGAC [XGTACX_site4622]" measured_on="PfAP2-HC AP2 domain (GST-tagged)" value=11.1
macromolecule_sequence="AACCACAGACATATAACACACATATACAATATATAT [CACACA_site5142]" measured_on="PfAP2-HC AP2 domain (GST-tagged)" value=10.4

State the recorded gcPBM binding intensity (ln) for every item in the following list.
1. TATTTATACACGCACACACACTTATACATTTATATA [CACACA_site7543]
2. TATATACTCAAACACACACACACATACACAGACATA [CACACA_site5025]
3. AAGTTTTATATTTATTAAATTTTTTTTTTTCCTTTT [XGTACX_negctrl_site184]
4. ATTTCATACAGACACACACACAAACAAACATATATA [CACACA_site979]

1. 10.8
2. 10.7
3. 9.2
4. 11.2

// each listed sequence needs a value for gcPBM binding intensity (ln)
1. TACAGATACAGATACACACACACACCGAAATAAATA [CACACA_site4865]
2. ATATACTTTTTTTTTTTTTTTTTAACGTTATTTATG [CACACA_negctrl_site1277]
3. AAAAAAAATACATACACACACACACCCACATATATA [CACACA_site3561]

1. 11
2. 9.64
3. 10.6

* * *

Kindly supply the reported gcPBM binding intensity (ln) values for the records listed here.
Test system: PfAP2-HC AP2 domain (GST-tagged)
PROCEDURE_DETAILS: gcPBM binding intensity (ln(normalized median fluorescence intensity)); higher = stronger DNA binding
The full ranking holds about 25,000 sequences; the median of “ln(normalized median fluorescence intensity)” is about 9.7, and the highest 2% start at about 11. What follows is part of a selection rich in the highest values, with near analogues and random picks from the rest.

# count of solved cases: 3
macromolecule_sequence="TGAATAAATCAAAGCACACATACACCCACATATATA [CACACA_site286]" measured_on="PfAP2-HC AP2 domain (GST-tagged)" value=10.2
macromolecule_sequence="AAAATTTAAAGCATGACACACAATTATATTATGTGC [CACACA_site3435]" measured_on="PfAP2-HC AP2 domain (GST-tagged)" value=9.76
macromolecule_sequence="TTTAAAACCTTACATACACACAAATATATATATATA [CACACA_site677]" measured_on="PfAP2-HC AP2 domain (GST-tagged)" value=10

# return gcPBM binding intensity (ln) for each item in the list
1. TAAACAGACATATAAACACACATACATACATACATA [CACACA_site7215]
2. ATATTAAGTTTTATTACACACTCTCAATTTTTATTT [CACACA_site4206]
3. AATAAAAAAAAATGCACACATATATATATATATATA [CACACA_site2421]
4. TAACTTAAATAATACATACACACATGTACATACAGA [CACACA_site1594]
5. TTTTTAAAAATATACACACACAGATATTATAGATAT [CACACA_site6511]
6. ATATATATATATATGTGTACATATAAGATAGAAGAA [XGTACX_site3198]
7. ATAAATACTAGGCACACACACATATAGATTTATATA [CACACA_site7064]

1: 10.2; 2: 9.87; 3: 9.71; 4: 10.2; 5: 10.1; 6: 10.2; 7: 10.8

Hey, can you go through the list below and give me gcPBM binding intensity (ln) for every item?
1. AAAAAAAAAAAAAACACACACACATAGACCTCCAAT [CACACA_site3563]
2. AAATTATAATATAATACACACATAAAAAAAAAAAAA [CACACA_site7]
3. CATATATATAAATACACACACACACCCCTTATAATT [CACACA_site4064]
4. AAAAAAAAAAAACACACACACACACTAATATATAAA [CACACA_site8302]
5. AAATAAAAAGGGTGCACACAAAAATATATATATATA [CACACA_site1728]

[11.3, 9.79, 10.6, 10.9, 9.94]

According to the records, this sequence GGTTCATAATATGGTTGTACATAAATATATATATAT [XGTACX_site7583] displays gcPBM binding intensity (ln) of 9.86

* * *

Tested on: PfAP2-HC AP2 domain (GST-tagged)
PROCEDURE_DETAILS: gcPBM binding intensity (ln(normalized median fluorescence intensity)); higher = stronger DNA binding
In all, about 25,000 sequences were measured (“ln(normalized median fluorescence intensity)”: median about 9.7, highest 2% from about 11 on). This excerpt belongs to a sample that is enriched for the highest values.
Give measured gcPBM binding intensity (ln) for each item. Keep answers brief.
One number for each entry.

Each sequence below has a recorded value; state its gcPBM binding intensity (ln).
1. AGGTGATTAATATATACACACATACATATATATATA [CACACA_site8913]
2. AAAAATAAAGAAACAGGTACGCATATATTAAGATAT [XGTACX_site8097]

[10, 9.98]

* * *

Test system: PfAP2-HC AP2 domain (GST-tagged)
PROCEDURE_DETAILS: gcPBM binding intensity (ln(normalized median fluorescence intensity)); higher = stronger DNA binding
Whole data set: some 25,000 sequences, median “ln(normalized median fluorescence intensity)” near 9.7, cut for the highest 2% near 11. The sample holds the highest values, similar sequences and a random draw of the others, so the mix is not that of the screen.
RECORDED_METRIC: gcPBM binding intensity (ln)

Worked set:
macromolecule_sequence="AAAAAAACATGAAACACACACAAATATTTATTTATA [CACACA_site6967]" recorded_metric="gcPBM binding intensity (ln)" value=10.2
macromolecule_sequence="TTTTATCATATTTATTGTACACATAATATACATATC [XGTACX_site1145]" recorded_metric="gcPBM binding intensity (ln)" value=9.99
macromolecule_sequence="AAAAAATACAAACACACACACACACCCATATATATA [CACACA_site3560]" recorded_metric="gcPBM binding intensity (ln)" value=11
macromolecule_sequence="AGTATACACGAACACACACACACATATATAAATATA [CACACA_site6913]" recorded_metric="gcPBM binding intensity (ln)" value=10.7
macromolecule_sequence="AAGAAATATTTATACACACACACAAACATATATATA [CACACA_site1912]" recorded_metric="gcPBM binding intensity (ln)" value=10.5

I need gcPBM binding intensity (ln) for every entry listed below, if you could help.
1. GTAGAGAAAAAAATGTGGACACAAAAAATAAAAAGG [XGTACX_site4058]
2. CCCCCCCACGAACACACACACATACATACCACATAT [CACACA_site7149]
3. AAAAAAATAAAGGATATACACACTAATTATATATAT [CACACA_site2812]

[9.79, 11, 9.81]

Record gcPBM binding intensity (ln) per entry; entries follow.
1. ATATTTTTTTATAAATGTACAAAAATAATATTGCAT [XGTACX_site7399]
2. AATATTTATAAAGACACACAAACAAAAAGGATAAAA [CACACA_site2985]
3. AAACTTGACGGACACACACACACATATATAAAAAAA [CACACA_site4577]
4. AATATGTTTTGTTAGGTTGGTGTTGGTAGAATGTTT [CACACA_negctrl_site1563]
5. ATAAAATTTATATAAGCACACAAATATATATTTATA [CACACA_site9083]

1: 9.48; 2: 10.3; 3: 11.6; 4: 9.85; 5: 9.7

Would you be so kind as to report gcPBM binding intensity (ln) for each listed record?
1. TATATACACCCACATACACACAAATAAAAAAACACC [CACACA_site3414]
2. TTTTATAAATATTATACATGCATAATGATAAAAAAA [TGCATGCA_site927]
3. TTTCTTTTTTCTGTTATTATTATAAAACGATATTTA [TGCATGCA_negctrl_site167]
4. AAAAAAAAAAAAAACACACACATACACCCAAAAATG [CACACA_site4223]
5. AGCTGAAAAAAAAGCTTGCACACGTATTTGCTTTAT [CACACA_site1512]

1. 10.5
2. 9.55
3. 9.58
4. 10.3
5. 9.81

Batch request: gcPBM binding intensity (ln) for each of the following sequences.
1. TTCTATATATAATATTGTACTTAATTATTTTATTTT [XGTACX_site2701]
2. ATGTTAAACAAATCTATACACACGTATATGACAAAA [CACACA_site1783]
3. GTTTGATTAAACTTGACACACATATATATAAATATA [CACACA_site1784]
4. AAAACACGCGGACACACACACACACGCCCACATATA [CACACA_site7105]

1: 9.83; 2: 9.71; 3: 9.65; 4: 10.6

Sourced from the supplement of paper PMC11417369
